procedure-text: Water solubility was determined at pH 6
Format: ADME

[
  {
    "record-smiles": "CC(C)[C@H](NS(=O)(=O)c1ccc(F)cc1)C(=O)NC/C=N/N1CCOCC1",
    "readout-unit": "µg/mL",
    "bound-sign": "=",
    "solubility": 692
  },
  {
    "record-smiles": "CC(C)C[C@@H](/C=N/N1CCOCC1)NC(=O)[C@@H](NS(=O)(=O)c1ccc(F)cc1)C(C)C",
    "readout-unit": "µg/mL",
    "bound-sign": "=",
    "solubility": 60.8
  },
  {
    "record-smiles": "CC(C)[C@H](NS(=O)(=O)c1ccc(F)cc1)C(=O)NC/C=N/NC(=O)CN(C)C",
    "readout-unit": "µg/mL",
    "bound-sign": ">",
    "solubility": 5000
  },
  {
    "record-smiles": "CC(C)C[C@@H](C=O)NC(=O)[C@@H](NS(=O)(=O)c1ccc(F)cc1)C(C)C",
    "readout-unit": "µg/mL",
    "bound-sign": "=",
    "solubility": 100
  },
  {
    "record-smiles": "CC(C)C[C@@H](/C=N/NCCO)NC(=O)[C@@H](NS(=O)(=O)c1ccc(F)cc1)C(C)C",
    "readout-unit": "µg/mL",
    "bound-sign": "=",
    "solubility": 226
  }
]

* * *

# reported solubility; entries follow
procedure-text: Water solubility was determined at pH 5
Format: ADME

[
  {
    "record-smiles": "CC(C)C[C@@H](/C=N/N1CCOCC1)NC(=O)[C@@H](NS(=O)(=O)c1ccc(F)cc1)C(C)C",
    "bound-sign": "=",
    "solubility [µg/mL]": 63.3
  },
  {
    "record-smiles": "CC(C)[C@H](NS(=O)(=O)c1ccc(F)cc1)C(=O)NC/C=N/NC(=O)CN(C)C",
    "bound-sign": ">",
    "solubility [µg/mL]": 5000
  },
  {
    "record-smiles": "CC(C)[C@H](NS(=O)(=O)c1ccc(F)cc1)C(=O)NC/C=N/N1CCOCC1",
    "bound-sign": "=",
    "solubility [µg/mL]": 840
  },
  {
    "record-smiles": "CC(C)C[C@@H](/C=N/NCCO)NC(=O)[C@@H](NS(=O)(=O)c1ccc(F)cc1)C(C)C",
    "bound-sign": "=",
    "solubility [µg/mL]": 234
  }
]

* * *

procedure-text: Water solubility was determined at pH 4
Format: ADME
reported-property: solubility (µg/mL)

[
  {
    "record-smiles": "CC(C)C[C@@H](/C=N/NC(N)=O)NC(=O)[C@@H](NS(=O)(=O)c1ccc(F)cc1)C(C)C",
    "bound-sign": "=",
    "test-result": 433
  },
  {
    "record-smiles": "CC(C)[C@H](NS(=O)(=O)c1ccc(F)cc1)C(=O)NC/C=N/N1CCOCC1",
    "bound-sign": "=",
    "test-result": 1260
  },
  {
    "record-smiles": "CC(C)[C@H](NS(=O)(=O)c1ccc(F)cc1)C(=O)NC/C=N/NC(=O)CN(C)C",
    "bound-sign": ">",
    "test-result": 5000
  },
  {
    "record-smiles": "CC(C)C[C@@H](C=O)NC(=O)[C@@H](NS(=O)(=O)c1ccc(F)cc1)C(C)C",
    "bound-sign": "=",
    "test-result": 102
  },
  {
    "record-smiles": "CC(C)C[C@@H](/C=N/NCCO)NC(=O)[C@@H](NS(=O)(=O)c1ccc(F)cc1)C(C)C",
    "bound-sign": "=",
    "test-result": 228
  },
  {
    "record-smiles": "CC(C)C[C@@H](/C=N/N1CCOCC1)NC(=O)[C@@H](NS(=O)(=O)c1ccc(F)cc1)C(C)C",
    "bound-sign": "=",
    "test-result": 67.3
  }
]

* * *

procedure-text: Water solubility was determined at pH 7
Format: ADME

[
  {
    "record-smiles": "CC(C)C[C@@H](/C=N/NCCO)NC(=O)[C@@H](NS(=O)(=O)c1ccc(F)cc1)C(C)C",
    "readout-unit": "µg/mL",
    "bound-sign": "=",
    "solubility": 293
  },
  {
    "record-smiles": "CC(C)C[C@@H](C=O)NC(=O)[C@@H](NS(=O)(=O)c1ccc(F)cc1)C(C)C",
    "readout-unit": "µg/mL",
    "bound-sign": "=",
    "solubility": 105
  },
  {
    "record-smiles": "CC(C)C[C@@H](/C=N/N1CCOCC1)NC(=O)[C@@H](NS(=O)(=O)c1ccc(F)cc1)C(C)C",
    "readout-unit": "µg/mL",
    "bound-sign": "=",
    "solubility": 58.2
  },
  {
    "record-smiles": "CC(C)[C@H](NS(=O)(=O)c1ccc(F)cc1)C(=O)NC/C=N/NC(=O)CN(C)C",
    "readout-unit": "µg/mL",
    "bound-sign": ">",
    "solubility": 5000
  },
  {
    "record-smiles": "CC(C)[C@H](NS(=O)(=O)c1ccc(F)cc1)C(=O)NC/C=N/N1CCOCC1",
    "readout-unit": "µg/mL",
    "bound-sign": "=",
    "solubility": 667
  }
]

* * *

tested-system: Calpain-1 catalytic subunit (Sus scrofa)
Sequence (P35750 whole entry): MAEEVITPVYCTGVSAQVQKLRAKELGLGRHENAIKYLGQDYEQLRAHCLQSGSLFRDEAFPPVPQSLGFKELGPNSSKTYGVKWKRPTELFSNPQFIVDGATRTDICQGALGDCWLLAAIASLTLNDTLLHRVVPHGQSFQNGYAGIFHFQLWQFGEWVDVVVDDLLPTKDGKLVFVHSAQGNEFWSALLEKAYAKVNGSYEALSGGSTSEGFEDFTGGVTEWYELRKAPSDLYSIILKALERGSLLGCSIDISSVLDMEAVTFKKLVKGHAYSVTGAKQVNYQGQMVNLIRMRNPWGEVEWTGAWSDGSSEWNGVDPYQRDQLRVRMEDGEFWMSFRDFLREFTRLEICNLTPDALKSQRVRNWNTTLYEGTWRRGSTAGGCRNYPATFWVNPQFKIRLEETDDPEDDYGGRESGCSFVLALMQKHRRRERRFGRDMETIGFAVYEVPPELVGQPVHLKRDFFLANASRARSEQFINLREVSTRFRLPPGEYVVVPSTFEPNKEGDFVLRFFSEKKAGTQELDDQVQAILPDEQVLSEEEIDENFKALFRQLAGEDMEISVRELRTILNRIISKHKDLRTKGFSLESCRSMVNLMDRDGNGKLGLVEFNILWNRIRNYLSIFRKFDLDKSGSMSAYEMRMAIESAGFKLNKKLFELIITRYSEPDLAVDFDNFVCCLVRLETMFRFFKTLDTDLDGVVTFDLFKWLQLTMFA
procedure-text: Tested for inhibitory activity against porcine erythrocyte Mu-calpain
reported-property: IC50

[
  {
    "record-smiles": "CC(C)C[C@@H](C=O)NC(=O)[C@@H](NS(=O)(=O)c1ccc(F)cc1)C(C)C",
    "tested-system": "Calpain-1 catalytic subunit (Sus scrofa)",
    "test-result": "35 nM"
  },
  {
    "record-smiles": "CC(C)C[C@@H](/C=N/NC(N)=O)NC(=O)[C@@H](NS(=O)(=O)c1ccc(F)cc1)C(C)C",
    "tested-system": "Calpain-1 catalytic subunit (Sus scrofa)",
    "test-result": "680 nM"
  },
  {
    "record-smiles": "CC(C)[C@H](NS(=O)(=O)c1ccc(F)cc1)C(=O)NC/C=N/NC(=O)CN(C)C",
    "tested-system": "Calpain-1 catalytic subunit (Sus scrofa)",
    "test-result": "> 10000 nM"
  },
  {
    "record-smiles": "CC(C)C[C@@H](/C=N/N1CCOCC1)NC(=O)[C@@H](NS(=O)(=O)c1ccc(F)cc1)C(C)C",
    "tested-system": "Calpain-1 catalytic subunit (Sus scrofa)",
    "test-result": "790 nM"
  },
  {
    "record-smiles": "CC(C)[C@H](NS(=O)(=O)c1ccc(F)cc1)C(=O)NC/C=N/N1CCOCC1",
    "tested-system": "Calpain-1 catalytic subunit (Sus scrofa)",
    "test-result": "6200 nM"
  },
  {
    "record-smiles": "CC(C)C[C@@H](/C=N/NCCO)NC(=O)[C@@H](NS(=O)(=O)c1ccc(F)cc1)C(C)C",
    "tested-system": "Calpain-1 catalytic subunit (Sus scrofa)",
    "test-result": "190 nM"
  }
]

The reported numbers originate from ChEMBL document CHEMBL1135857.
